system: firefly luciferase (FLuc); test: residual bioluminescent signal relative to negative (DMSO) control; higher = less interference (more residual luciferase signal); settings: metal salt concentration 0.01 mM; screening conditions (0.5 mM Tris, 50 mM glycine, 0.5 mM EDTA, 5 mM MgSO4, 10 uM ATP, pH 7.6)
measurement kind: residual bioluminescent signal (%)
Quick note: give the figure in %, leave out the unit.

# query: residual bioluminescent signal | item O=[N+]([O-])[O-].O=[N+]([O-])[O-].O=[N+]([O-])[O-].[Al+3] [aluminium nitrate] | system: firefly luciferase (FLuc)
75.8

# query: residual bioluminescent signal | item [Cl][Sn][Cl] [tin(II) chloride] | system: firefly luciferase (FLuc)
90.8

# query: residual bioluminescent signal | item O=[N+]([O-])[O-].O=[N+]([O-])[O-].[Ca+2] [calcium nitrate] | system: firefly luciferase (FLuc)
75.6

# query: residual bioluminescent signal | item O=[N+]([O-])[O-].O=[N+]([O-])[O-].[Cd+2] [cadmium nitrate] | system: firefly luciferase (FLuc)
95.2

# query: residual bioluminescent signal | item O=[N+]([O-])[O-].[K+] [potassium nitrate] | system: firefly luciferase (FLuc)
100

# query: residual bioluminescent signal | item O=[N+]([O-])[O-].O=[N+]([O-])[O-].[Pb+2] [lead(II) nitrate] | system: firefly luciferase (FLuc)
93.3

# query: residual bioluminescent signal | item O=[N+]([O-])[O-].O=[N+]([O-])[O-].[Zn+2] [zinc nitrate] | system: firefly luciferase (FLuc)
81.5
